Test: Growth inhibition of human U251 cells at 10 uM after 48 hrs by SRB assay relative to control
Format: functional
Settings: U-251, 48 h, read-out: GI
experimentalEndpoint: inhibition of growth at 10 µM (%)

1. COc1cc2nc(SCc3cc(OC)c(OC)c(OC)c3)n(Cc3ccccc3)c(=O)c2cc1OC ... 71
2. COc1ccc(-n2c(SCc3cc(OC)c(OC)c(OC)c3)nc3ccc(C)cc3c2=O)cc1 ... 30.9
3. COc1ccc(-n2c(SCc3cc(OC)c(OC)c(OC)c3)nc3ccc(C)cc3c2=O)c(OC)c1 ... 75.2
4. COc1cc(CSc2nc3ccc(C)cc3c(=O)n2-c2ccccc2)cc(OC)c1OC ... 61.5
5. COc1cc(CSc2nc3ccc(Cl)cc3c(=O)n2Cc2ccccc2)cc(OC)c1OC ... 67.2
6. COc1ccccc1-n1c(SCc2cc(OC)c(OC)c(OC)c2)nc2ccc(Cl)cc2c1=O ... 74.5
7. COc1cc2nc(SCc3cc(OC)c(OC)c(OC)c3)n(-c3ccccc3OC)c(=O)c2cc1OC ... 13.2
8. COc1cc(CSc2nc3ccc(C)cc3c(=O)n2Cc2ccccc2)cc(OC)c1OC ... 67
9. COc1cc(CSc2nc3ccc(Cl)cc3c(=O)n2-c2ccccc2)cc(OC)c1OC ... 11.4

###

Listed here: items and their measured inhibition of growth at 10 µM.
Assay: Growth inhibition of human SF539 cells at 10 uM after 48 hrs by SRB assay relative to control
Type: functional
Details: SF-539, 48 h, read-out: GI
experimentalEndpoint: inhibition of growth at 10 µM (%)

1. COc1ccc(-n2c(SCc3cc(OC)c(OC)c(OC)c3)nc3ccc(C)cc3c2=O)cc1 ... 22.3
2. COc1cc2nc(SCc3cc(OC)c(OC)c(OC)c3)n(-c3ccccc3OC)c(=O)c2cc1OC ... 10.1
3. COc1ccccc1-n1c(SCc2cc(OC)c(OC)c(OC)c2)nc2ccc(Cl)cc2c1=O ... 35.5
4. COc1cc(CSc2nc3ccc(Cl)cc3c(=O)n2-c2ccccc2)cc(OC)c1OC ... 21.1

###

LC50 for assorted compounds
Assay: Growth inhibition of human colon cancer cells after 48 hrs by SRB assay
Assay type: functional
Details: Cancer cell lines
experimentalEndpoint: LC50

1) COc1ccccc1-n1c(SCc2cc(OC)c(OC)c(OC)c2)nc2ccc(Cl)cc2c1=O ... > 100 µM
2) COc1cc(CSc2nc3ccc(C)cc3c(=O)n2Cc2ccccc2)cc(OC)c1OC ... 87.1 µM
3) COc1cc(CSc2nc3ccc(Cl)cc3c(=O)n2Cc2ccccc2)cc(OC)c1OC ... 87.5 µM
4) COc1ccc(-n2c(SCc3cc(OC)c(OC)c(OC)c3)nc3ccc(C)cc3c2=O)cc1 ... > 100 µM
5) COc1cc2nc(SCc3cc(OC)c(OC)c(OC)c3)n(Cc3ccccc3)c(=O)c2cc1OC ... > 100 µM
6) COc1cc(CSc2nc3ccc(C)cc3c(=O)n2-c2ccccc2)cc(OC)c1OC ... > 100 µM
7) COc1ccc(-n2c(SCc3cc(OC)c(OC)c(OC)c3)nc3ccc(C)cc3c2=O)c(OC)c1 ... > 100 µM

###

Assay: Growth inhibition of human UACC257 cells at 10 uM after 48 hrs by SRB assay relative to control
Assay type: functional
Settings: UACC-257, 48 h, read-out: GI
A collection of compounds and their measured inhibition of growth at 10 µM
experimentalEndpoint: inhibition of growth at 10 µM

1. COc1cc2nc(SCc3cc(OC)c(OC)c(OC)c3)n(-c3ccccc3OC)c(=O)c2cc1OC ... < 10%
2. COc1ccc(CSc2nc3cc(OC)c(OC)cc3c(=O)n2-c2ccc(OC)cc2OC)cc1 ... < 10%
3. COc1cc(CSc2nc3ccc(Cl)cc3c(=O)n2-c2ccccc2)cc(OC)c1OC ... 10.3%
4. COc1cc2nc(SCc3cc(OC)c(OC)c(OC)c3)n(Cc3ccccc3)c(=O)c2cc1OC ... 36.7%
5. COc1ccc(-n2c(SCc3cc(OC)c(OC)c(OC)c3)nc3ccc(C)cc3c2=O)c(OC)c1 ... < 10%
6. COc1cc(CSc2nc3ccc(C)cc3c(=O)n2-c2ccccc2)cc(OC)c1OC ... 49.8%
7. COc1ccccc1-n1c(SCc2cc(OC)c(OC)c(OC)c2)nc2ccc(Cl)cc2c1=O ... < 10%
8. COc1cc(CSc2nc3ccc(Cl)cc3c(=O)n2Cc2ccccc2)cc(OC)c1OC ... 53.5%
9. COc1cc(CSc2nc3ccc(C)cc3c(=O)n2Cc2ccccc2)cc(OC)c1OC ... 52.6%
10. COc1ccc(-n2c(SCc3cc(OC)c(OC)c(OC)c3)nc3ccc(C)cc3c2=O)cc1 ... 22.7%
11. COc1ccc(-n2c(SCc3cc(OC)c(OC)c(OC)c3)nc3ccc(Cl)cc3c2=O)cc1 ... 11.2%
